The reported numbers originate from PubChem BioAssay (NCATS).

molecular target: Glucocorticoid receptor (Homo sapiens); test: qHTS assay for small molecule agonists of glucocorticoid receptor signaling (AID 588532); details: HeLa MMTV-bla, beta-lactamase ratio, agonist, 18 h; hits give high values; percent of dexamethasone control, DMSO zero;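 further: 100% = dexamethasone at 0.1 µM and 0% = DMSO only wells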
Inconclusive results are not listed.
For each entry below, report its activation value.
Answers are plain numbers, in %.

Field: example entries. Status: answers known.
smilesrepresentation=O=[N+]([O-])c1cccc2c([N+](=O)[O-])cccc12 systemundertest="Glucocorticoid receptor (Homo sapiens)" unitstext=% observedresult=-1.31
smilesrepresentation=Cl/C=C/Cl systemundertest="Glucocorticoid receptor (Homo sapiens)" unitstext=% observedresult=-4.99

Here is the next item to consider.
Qu. Look at this compound and give its reported activation. O=C(O)C(Cl)(Cl)Br
Ans. -2.11
